target: UniProtKB P32240; test: Binding affinity towards mouse Prostanoid EP4 receptor in CHO cells.
Sequence (P32240 whole entry): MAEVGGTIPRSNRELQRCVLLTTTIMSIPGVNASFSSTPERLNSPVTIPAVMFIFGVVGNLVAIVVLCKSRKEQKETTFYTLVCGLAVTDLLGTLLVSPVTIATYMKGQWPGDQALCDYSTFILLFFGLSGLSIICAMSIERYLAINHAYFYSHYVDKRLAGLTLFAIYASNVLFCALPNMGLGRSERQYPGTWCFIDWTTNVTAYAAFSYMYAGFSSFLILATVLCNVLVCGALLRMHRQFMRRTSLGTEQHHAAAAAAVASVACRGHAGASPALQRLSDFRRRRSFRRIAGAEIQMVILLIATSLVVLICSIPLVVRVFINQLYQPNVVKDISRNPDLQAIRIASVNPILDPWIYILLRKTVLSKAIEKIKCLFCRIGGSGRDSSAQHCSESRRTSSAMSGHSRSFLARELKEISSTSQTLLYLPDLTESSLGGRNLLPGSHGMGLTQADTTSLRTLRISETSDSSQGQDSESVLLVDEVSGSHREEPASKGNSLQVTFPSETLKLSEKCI
pKi: −log10 of the molar value.
measurement.type: pKi

Reference set, count: 2
{"compound": "CCC1([C@@H](O)C/C=C/[C@H]2[C@H](O)CC(=O)[C@@H]2C/C=C\\CCCC(=O)O)CCC1", "pKi": "< 5.00"}
{"compound": "CC(C)CC1([C@@H](O)C/C=C/[C@H]2[C@H](O)CC(=O)[C@@H]2C/C=C\\CCCC(=O)O)CCC1", "pKi": "< 5.00"}

Now for a further compound.
For CCCC1([C@@H](O)C/C=C/C2[C@H](O)CC(=O)[C@@H]2C/C=C/CCCC(=O)O)CCC1 (stereo partly drawn) , what is its reported pKi?
< 5.00
